Known pKd of a selection of substances
biological target: HSA (Homo sapiens, UniProt P02768); assay: Albumin binding affinity by surface plasmon resonance; conditions: human, HSA (human serum albumin), surface plasmon resonance
Sequence (P02768 25-609): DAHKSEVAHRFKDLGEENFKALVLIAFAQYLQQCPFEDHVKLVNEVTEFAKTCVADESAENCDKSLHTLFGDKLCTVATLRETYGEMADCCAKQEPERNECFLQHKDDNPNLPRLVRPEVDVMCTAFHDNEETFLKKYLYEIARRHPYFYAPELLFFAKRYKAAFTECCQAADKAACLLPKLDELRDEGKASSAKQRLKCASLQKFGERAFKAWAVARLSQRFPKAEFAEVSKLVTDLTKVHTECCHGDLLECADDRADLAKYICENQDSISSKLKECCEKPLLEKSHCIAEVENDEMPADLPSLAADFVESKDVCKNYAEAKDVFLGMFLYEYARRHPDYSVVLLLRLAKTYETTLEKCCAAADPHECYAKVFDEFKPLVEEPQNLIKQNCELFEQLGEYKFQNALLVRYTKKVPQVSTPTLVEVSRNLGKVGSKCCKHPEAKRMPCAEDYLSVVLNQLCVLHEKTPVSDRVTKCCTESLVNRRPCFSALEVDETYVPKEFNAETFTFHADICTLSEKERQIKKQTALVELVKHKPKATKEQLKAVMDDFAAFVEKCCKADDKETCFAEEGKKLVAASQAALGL
Square brackets hold non-standard residues; d marks the D form. Ends that are not written are not given here. * marks the point of attachment. FITC = O=C1OC2(c3ccc(O)cc3Oc3cc(O)ccc32)c2ccc(NC(=S)*)cc21; Stearoyl = CCCCCCCCCCCCCCCCCC(=O)*; Palmitoyl = CCCCCCCCCCCCCCCC(=O)*; Myristoyl = CCCCCCCCCCCCCC(=O)*; Aib = CC(C)(N)C(=O)O; Ahx = NCCCCCC(=O)O
Entry type: numeric. Quantity: pKd, the -log10 of concentration in molar units.

Take a look at these entries with their results.
{FITC-Ahx}-EYK(Myristoyl)EEYEGGGGSGGGGSFNPRH[Aib]EGTFTSDVSSYLEGQAAKEFIAWLVKGRG (N-terminus assumed) [PES07] :: 5.12
{FITC-Ahx}-EYEEYK(Stearoyl)EGGGGSGGGGSFNPRH[Aib]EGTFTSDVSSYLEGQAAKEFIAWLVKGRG (N-terminus assumed) [PES18] :: 5.50
{FITC-Ahx}-EYEEK(Myristoyl)YEGGGGSGGGGSFNPRH[Aib]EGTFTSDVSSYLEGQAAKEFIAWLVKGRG (N-terminus assumed) [PES13] :: 6.42
{FITC-Ahx}-EK(Stearoyl)YEEYEGGGGSGGGGSFNPRH[Aib]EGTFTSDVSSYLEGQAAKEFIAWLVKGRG (N-terminus assumed) [PES06] :: 5.31
{FITC-Ahx}-EYEK(Stearoyl)EYEGGGGSGGGGSFNPRH[Aib]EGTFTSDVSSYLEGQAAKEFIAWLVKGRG (N-terminus assumed) [PES12] :: 5.61

Dear colleague, I am looking for the recorded pKd of the following substance: {FITC-Ahx}-EYEEK(Palmitoyl)YEGGGGSGGGGSFNPRH[Aib]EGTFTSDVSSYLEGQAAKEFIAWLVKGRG (N-terminus assumed) [PES14] 6.16

Value lookup for pKd; key = {FITC-Ahx}-EYK(Stearoyl)EEYEGGGGSGGGGSFNPRH[Aib]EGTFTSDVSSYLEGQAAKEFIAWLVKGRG (N-terminus assumed) [PES09] 5.36

Need pKd of {FITC-Ahx}-K(Stearoyl)EYEEYEGGGGSGGGGSFNPRH[Aib]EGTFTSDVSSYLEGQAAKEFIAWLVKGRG (N-terminus assumed) [PES03] , thanks. 5.60

Give its pKd value. Item: {FITC-Ahx}-EYEEYK(Palmitoyl)EGGGGSGGGGSFNPRH[Aib]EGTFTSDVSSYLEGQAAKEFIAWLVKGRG (N-terminus assumed) [PES17] 5.28

Reported pKd, substance {FITC-Ahx}-EYEEK(Stearoyl)YEGGGGSGGGGSFNPRH[Aib]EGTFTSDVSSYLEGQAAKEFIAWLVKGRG (N-terminus assumed) [PES15] : ____ 6.29

Which pKd is reported for this substance? {FITC-Ahx}-EYEEYEK(Myristoyl)GGGGSGGGGSFNPRH[Aib]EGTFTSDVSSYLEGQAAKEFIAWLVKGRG (N-terminus assumed) [PES19] 5.06

Item under review: {FITC-Ahx}-EK(Palmitoyl)YEEYEGGGGSGGGGSFNPRH[Aib]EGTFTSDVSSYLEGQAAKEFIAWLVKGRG (N-terminus assumed) [PES05] . Reported pKd? 5.09
